Entries and their melting point
MEASURED ATTRIBUTE: melting point

In [3]: df
Out[3]:
                                   compound         result
0  CCCn1c(=O)c2nc(-c3ccc(/C=C/C(=O)O)cc3)[nH]c2n(CC2CCCCC2)c1=O       > 350 °C
1  CC(C)CCc1c(-c2ccc(S(C)(=O)=O)cc2)cnn(-c2ccc(F)c(Cl)c2)c1=O    55 to 58 °C
2              CC(C)(C)OC(=O)NCCc1cccc(O)c1    79 to 82 °C
3  COc1cc(OCC(=O)N2CCOCC2)c(C=CC(=O)c2ccc(C(=O)O)cc2)cc1-c1cccs1  231 to 233 °C
4  COC(=O)C(O)C(NC(=O)OCc1ccccc1)c1ccccc1 (stereo not given)  120 to 121 °C
5  CCOC(=O)/C=C(C)/C(F)=C/C=C(C)/C=C/c1c(Cl)cc(OC)c(Cl)c1Cl  140 to 142 °C
6        Oc1c(Cl)cc(Cn2c(S)nc3ccccc32)cc1Cl         246 °C
7                       O=C1NCCc2cc(O)ccc21  204 to 206 °C
8  CCOC1Nc2c(ccc(C)c2O)C(=O)N2CCCC12 (stereo not given)  155 to 157 °C
9  Cc1ccc2c(c1)c(N1CCN(C(=O)c3cccs3)CC1)c(C#N)c(=O)n2CCN(C)C  110 to 117 °C
